- experimental_target: T1, CREBBP bromodomain (human, UniProt Q92793 1081-1197)
- T1 construct: the crystallised construct may differ; also called CBP; KAT3A; source: E. coli BL21(DE3), purified (Ni-NTA, TEV, SEC)
- T1 sequence (Q92793 1081-1197): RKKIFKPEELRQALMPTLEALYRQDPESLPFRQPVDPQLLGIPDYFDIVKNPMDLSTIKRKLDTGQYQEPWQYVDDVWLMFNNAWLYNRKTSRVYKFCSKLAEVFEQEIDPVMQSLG
- protocol: ITC; peptide (mM stock) titrated into bromodomain (about 50 μM), by the concentrations in the tables; 10 or 15°C, 50 mM HEPES pH 7.5, 150 mM NaCl; single binding site model
- setup_conditions: both partners purified
pKd: −log10 of the molar value. Where no end group is shown, it is not given here.
assay_metric: pKd

Recorded results for 3 binders are shown here.
ATGGVK(Ac)KPHRY (histone H3, human; the last Y is Y41 of H3; source: synthetic peptide) [H3K36 peptide ATGGVKacKPHRY] :: 4.15
AHYNK(Ac)RSTITSRE (histone H2B, human; source: synthetic peptide) [H2BK85 peptide AHYNKacRSTITSRE] :: 4.18
RRGGVK(Ac)RISGLY (histone H4, human; source: synthetic peptide) [H4K44 peptide RRGGVKacRISGLY] :: 4.60

A: GGVK(Ac)RISGLI (histone H4, human; source: synthetic peptide) [H4K44 peptide GGVKacRISGLI]
B: GTVALREIRRYQK(Ac)S (histone H3, human; source: synthetic peptide) [H3K56 peptide GTVALREIRRYQKacS]
Exam item: Exercise: compare A and B ; which one has the greater pKd? Kindly state the label of the option you pick.
Marked response: B

Measured values drawn from paper PMC3326523 for this set.
